- experimental_details: Inhibition of Steroid 5-alpha-reductase of benign hyperplastic human prostatic tissue
- conditions: read-out: Ki app
measured_metric: Ki
Note: a bare number is incomplete; add the unit.

Qu. Find the recorded Ki belonging to Cc1cc2c(cc1C(=O)O)CC[C@@H]1[C@@H]2CC[C@]2(C)[C@@H](C(=O)N(C(C)C)C(C)C)CC[C@@H]12 and report it.
Ans. 0.06 µM

Qu. Need Ki of CC(C)N(C(=O)[C@H]1CC[C@H]2[C@@H]3CCc4c(ccc(C(=O)O)c4Br)[C@H]3CC[C@]12C)C(C)C , thanks.
Ans. 0.212 µM

Qu. Name the recorded Ki for Cc1c(C(=O)O)ccc2c1CC[C@@H]1[C@@H]2CC[C@]2(C)[C@@H](C(=O)N(C(C)C)C(C)C)CC[C@@H]12 .
Ans. 0.26 µM

Data origin: ChEMBL document CHEMBL1124724
